# method_notes: Volume distribution constant was determined
# Format: ADME, organism-based, Canis lupus familiaris
# measurement_setup: dog, in vivo; read-out: Vdss
quantity_name: Vd (L/kg)
Kindly provide the numeric value in L/kg only, without the unit symbol.

Form field Vd, entry `Cc1cc(C)cc(Nc2nccc(-n3ccnc3-c3ccccc3)n2)c1` : 1.11

====

# method_notes: Partition coefficient (logP)
# Assay type: physicochemical
# measurement_setup: octanol/water
quantity_name: logP

Form field logP, entry `Cc1cc(C)cc(Nc2nccc(-n3ccnc3-c3ccccc3)n2)c1` : 3.74

====

# assayed_target: Vascular endothelial growth factor receptor (Homo sapiens, UniProt P17948+P35916+P35968)
# method_notes: Inhibition of VEGFstimulated mitogenesis in human umbilical vein endothelial cells
# Assay type: functional, cell-based
# measurement_setup: endothelial cell
Cut-off 90 nM on IC50: below means met, at or above means not met.

Enquiry: Answer whether the molecule `Cc1cc(Nc2nccc(-n3ccnc3-c3ccccc3)n2)cc(C(F)(F)F)c1` has IC50 strictly less than 90 nM
Return: met

Enquiry: Answer whether the molecule `COc1cc(Nc2nccc(-n3ccnc3-c3ccccc3)n2)cc(OC)c1` has IC50 strictly less than 90 nM
Return: met

Enquiry: Answer whether the molecule `CC(=O)N1CCN(Cc2cc(C)cc(Nc3nccc(-n4ccnc4-c4ccccc4)n3)c2)CC1` has IC50 strictly less than 90 nM
Return: not met

Enquiry: Answer whether the molecule `FC(F)(F)c1cccc(Nc2nccc(-n3ccnc3-c3ccccc3)n2)c1` has IC50 strictly less than 90 nM
Return: not met

Enquiry: Answer whether the molecule `Cc1cc(CO)cc(Nc2nccc(-n3ccnc3-c3ccccc3)n2)c1` has IC50 strictly less than 90 nM
Return: met
